Target: Ornithine decarboxylase (Mus musculus)
Test: Effect of compound on Ornithine decarboxylase (ODC) […] in L1210 cells
Assay type: cell-based
Criterion: Activity strictly under 40. Met: class 1. Not met: class 0.

molecule="CCNCCCNCCCNCCCNCC [BIS(ETHYL)NORSPERMINE]" classification="class 1"
molecule=CCNCC[C@@H](O)CNCCCCNC[C@H](O)CCNCC classification="class 0"
molecule="CCNCC[C@H](O)CNCCCCNC[C@@H](O)CCNCC [IVOSPEMIN]" classification="class 1"
molecule=CCNC[C@@H](O)CNCCCNC[C@H](O)CNCC classification="class 1"
molecule="CCNCCCCNCCCCNCCCCNCC [DIETHYLHOMOSPERMINE]" classification="class 1"
molecule=CCNC[C@H](O)CNCCCNC[C@@H](O)CNCC classification="class 0"
